Target: CYP450 2C19 (Homo sapiens, UniProt P33261)
Sequence (P33261 whole entry): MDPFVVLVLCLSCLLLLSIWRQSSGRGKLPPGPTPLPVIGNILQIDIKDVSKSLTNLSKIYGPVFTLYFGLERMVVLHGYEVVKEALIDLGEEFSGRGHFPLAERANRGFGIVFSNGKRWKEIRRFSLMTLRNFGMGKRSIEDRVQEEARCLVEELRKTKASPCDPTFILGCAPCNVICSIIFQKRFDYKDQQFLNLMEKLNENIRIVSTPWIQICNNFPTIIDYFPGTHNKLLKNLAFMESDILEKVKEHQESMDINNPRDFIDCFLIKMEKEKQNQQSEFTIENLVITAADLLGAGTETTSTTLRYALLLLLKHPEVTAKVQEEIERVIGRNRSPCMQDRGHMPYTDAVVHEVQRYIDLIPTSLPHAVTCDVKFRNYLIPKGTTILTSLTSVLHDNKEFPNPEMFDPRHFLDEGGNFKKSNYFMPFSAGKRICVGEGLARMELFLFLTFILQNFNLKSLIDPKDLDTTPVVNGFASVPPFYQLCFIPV
Test: CYP450 inhibition 2C19
Format: in vitro ADME
Settings: read-out: CYP450 inhibition 2C19 IC50
pIC50: −log10 of the molar value.
Property measured: pIC50

Data request: Note pIC50 for the compound shown: "Clc1cccc(CN=C2Nc3ccccc3NC23CCNCC3)c1"
Data returned: < 4.60

---

Tested on: CYP450 1A
Experiment: CYP450 inhibition 1A
Format: in vitro ADME
Details: read-out: CYP450 inhibition 1A IC50
Property measured: IC50

Data request: Give IC50 for this entry on CYP450 1A: "Clc1cccc(CN=C2Nc3ccccc3NC23CCNCC3)c1"
Data returned: > 25 µM

---

Molecular target: UniProt:Q12809
Sequence (Q12809 whole entry): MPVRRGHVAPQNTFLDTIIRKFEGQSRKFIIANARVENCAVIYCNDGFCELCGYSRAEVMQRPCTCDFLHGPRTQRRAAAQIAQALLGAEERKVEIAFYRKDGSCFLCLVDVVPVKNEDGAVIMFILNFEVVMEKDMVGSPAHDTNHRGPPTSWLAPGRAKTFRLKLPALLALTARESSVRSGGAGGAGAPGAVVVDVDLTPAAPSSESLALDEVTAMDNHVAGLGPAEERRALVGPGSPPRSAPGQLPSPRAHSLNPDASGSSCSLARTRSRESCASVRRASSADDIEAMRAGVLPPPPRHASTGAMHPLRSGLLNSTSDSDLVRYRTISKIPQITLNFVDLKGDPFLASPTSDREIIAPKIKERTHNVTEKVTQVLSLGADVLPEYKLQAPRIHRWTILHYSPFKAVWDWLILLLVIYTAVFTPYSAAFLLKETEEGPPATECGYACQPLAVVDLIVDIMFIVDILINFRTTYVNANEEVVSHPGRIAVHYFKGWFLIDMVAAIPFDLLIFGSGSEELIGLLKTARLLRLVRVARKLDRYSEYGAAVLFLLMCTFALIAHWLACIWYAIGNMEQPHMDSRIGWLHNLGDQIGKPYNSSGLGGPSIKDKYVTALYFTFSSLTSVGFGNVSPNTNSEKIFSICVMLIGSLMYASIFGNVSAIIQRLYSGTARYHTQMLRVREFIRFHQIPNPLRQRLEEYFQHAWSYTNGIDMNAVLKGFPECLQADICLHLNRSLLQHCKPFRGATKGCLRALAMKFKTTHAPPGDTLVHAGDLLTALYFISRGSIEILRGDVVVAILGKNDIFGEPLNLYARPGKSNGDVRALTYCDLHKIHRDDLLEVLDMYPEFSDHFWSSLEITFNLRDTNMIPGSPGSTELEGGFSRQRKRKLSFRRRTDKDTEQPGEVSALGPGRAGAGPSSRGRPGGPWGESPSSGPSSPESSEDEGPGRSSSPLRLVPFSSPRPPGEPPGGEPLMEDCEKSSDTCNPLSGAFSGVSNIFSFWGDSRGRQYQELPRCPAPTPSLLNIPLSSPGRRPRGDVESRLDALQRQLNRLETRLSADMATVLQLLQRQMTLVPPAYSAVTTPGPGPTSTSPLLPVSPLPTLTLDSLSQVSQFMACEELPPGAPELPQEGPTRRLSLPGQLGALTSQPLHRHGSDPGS
Assay: hERG patch clamp assay
Type: cell-based
Settings: read-out: hERG patch clamp assay IC50
Property measured: IC50

Data request: Give IC50 for this entry on UniProt:Q12809: "Clc1cccc(CN=C2Nc3ccccc3NC23CCNCC3)c1"
Data returned: > 25 µM

---

Molecular target: UniProt P08684
Sequence (P08684 whole entry): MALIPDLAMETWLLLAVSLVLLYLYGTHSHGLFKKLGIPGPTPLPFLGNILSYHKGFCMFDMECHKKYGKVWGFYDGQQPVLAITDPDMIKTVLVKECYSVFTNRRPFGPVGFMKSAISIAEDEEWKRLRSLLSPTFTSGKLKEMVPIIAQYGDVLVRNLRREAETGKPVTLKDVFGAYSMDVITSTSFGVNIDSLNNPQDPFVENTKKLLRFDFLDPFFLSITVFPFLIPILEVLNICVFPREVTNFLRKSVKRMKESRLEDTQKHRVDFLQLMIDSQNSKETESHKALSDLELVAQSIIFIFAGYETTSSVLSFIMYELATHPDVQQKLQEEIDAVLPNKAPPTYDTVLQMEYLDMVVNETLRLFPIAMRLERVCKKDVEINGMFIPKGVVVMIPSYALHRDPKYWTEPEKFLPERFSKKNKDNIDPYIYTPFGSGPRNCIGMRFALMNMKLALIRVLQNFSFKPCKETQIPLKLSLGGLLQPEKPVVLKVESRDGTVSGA
Experiment: CYP450 inhibition 3A4
Type: in vitro ADME
Conditions: read-out: CYP450 inhibition 3A4 IC50
Property measured: IC50

Data request: Note IC50 for the molecule shown: "Clc1cccc(CN=C2Nc3ccccc3NC23CCNCC3)c1"
Data returned: > 25 µM
